MEASUREMENT TARGET: Solute carrier organic anion transporter family member 2A1 (Rattus norvegicus, UniProt Q00910)
MEASUREMENT PROTOCOL: TP_TRANSPORTER: inhibition of PGE2 uptake in PGT-expressing HeLa cells
READOUT KIND: Ki
Please report the result as a number followed by the unit.

{"columns": ["MOLECULE", "Ki"],
 "data": [
  ["CCCCC[C@H](O)/C=C/[C@H]1C(=O)C[C@H](O)[C@@H]1C/C=C\\CCCC(=O)O [PROSTAGLANDIN D2]", "45 nM"]
]}

Let us examine a further case.
Challenge: Please report the recorded Ki for CCCCC[C@H](O)/C=C/[C@@H]1[C@@H](C/C=C\CCCC(=O)O)[C@@H](O)C[C@H]1O .
Response given: 45 nM
